- Read-out: Collagen III, COL3A1 (gene 1281)
- experiment summary: BSK_hDFCGF_CollagenIII: BioMAP Diversity Plus: hDFCGF Assay for Collagen III Biomarker Activity (AID 2283056)
- assay context: primary human foreskin fibroblasts; actives raise or lower the signal
- Method: BSK_hDFCGF is a cell-based, multiplexed-readout assay that uses foreskin fibroblast, a human skin primary cell, with measurements taken at 24 hours after chemical dosing in a 96-well plate.BSK_hDFCGF_CollagenIII is an assay component measured in the BSK_hDFCGF assay. It measures Collagen antibody related to regulation of gene expression using ELISA technology.Data from the assay component BSK_hDFCGF_CollagenIII was analyzed into 1 assay endpoint. […]
Active and inactive are the calls of the source. The calls were made as follows: active = hit-call score of the fitted dose curve at least 0.9, where 1 is the maximum; inactive = score below 0.9.
The reply should name one outcome from TRUE for active, FALSE for inactive

# chemical smiles, qualitative label
measured = [
    ("O=C(NCc1ncc(C(F)(F)F)cc1Cl)c1c(Cl)cccc1Cl", "FALSE"),
    ("Cc1ccc(C(=O)c2ccccc2)cc1", "TRUE"),
    ("N=C(N)c1ccc(OCCCCCOc2ccc(C(=N)N)cc2)cc1", "FALSE"),
    ("O=C1NS(=O)(=O)c2ccccc21", "FALSE"),
    ("O=C(CCCN1CCC(O)(c2ccc(Cl)cc2)CC1)c1ccc(F)cc1", "FALSE"),
]

As a next step, examine the compound that follows.
What did the test return for O=C(O)CCC(F)(F)C(F)(F)C(F)(F)C(F)(F)C(F)(F)F ?
FALSE

====

- measured on: Retinoic acid receptor RXR-alpha (Homo sapiens) (UniProt P19793)
- Sequence (P19793 whole entry, looked up): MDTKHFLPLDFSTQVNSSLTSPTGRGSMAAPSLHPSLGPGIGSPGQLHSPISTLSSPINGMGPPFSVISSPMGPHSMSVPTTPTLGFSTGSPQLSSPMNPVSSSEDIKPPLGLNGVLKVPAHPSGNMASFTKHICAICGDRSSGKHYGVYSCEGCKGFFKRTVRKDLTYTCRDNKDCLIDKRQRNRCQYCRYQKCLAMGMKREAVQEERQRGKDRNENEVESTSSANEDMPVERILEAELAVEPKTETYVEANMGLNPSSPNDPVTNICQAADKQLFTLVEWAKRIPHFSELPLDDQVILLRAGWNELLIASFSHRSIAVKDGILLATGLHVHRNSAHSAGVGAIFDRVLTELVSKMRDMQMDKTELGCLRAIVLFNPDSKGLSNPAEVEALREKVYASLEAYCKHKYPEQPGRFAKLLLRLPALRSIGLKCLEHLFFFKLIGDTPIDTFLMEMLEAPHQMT
- experiment summary: OT_NURR1_NURR1RXRa_0480: Odyssey Thera (OT) 8-hour HEK293T Protein Complementation Assay for Nurr1/retinoid X receptor (RXR) (AID 2283385)
Records with an inconclusive call do not appear. Activity calls are given as the source filed them. The calls were made as follows: active = hit-call score of the fitted dose curve at least 0.9, where 1 is the maximum; inconclusive = response in the unintended direction; inactive = score below 0.9.
Write down the outcome that applies. Available outcomes: true = active, false = inactive

# chemical smiles, measured on, qualitative label
data = [
    ("CCCCCCCCCCCC(=O)O", "Retinoic acid receptor RXR-alpha (Homo sapiens) (UniProt P19793)", "false"),
]

Lab log entry: CCCCCCCCCCCC — outcome as called in the assay?
true

What did this assay record as the result for O=C(CCCN1CCC(O)(c2ccc(Cl)cc2)CC1)c1ccc(F)cc1 ?
false

Status in this test for O=C1OC2(c3ccccc31)c1cc(I)c(O)c(I)c1Oc1c2cc(I)c(O)c1I ?
false

====

- experiment summary: TOX21_TRB_BLA_Antagonist_Followup_viability: Viability Assessment in the Tox21 Thyroid Hormone Receptor beta Antagonism Beta-lactamase (BLA) Follow-Up Assay (AID 2283961)
Results filed as inconclusive are left out. Activity calls are given as the source filed them. Rule for the calls: active = hit-call score of the fitted dose curve at least 0.9, where 1 is the maximum; inconclusive = response in the unintended direction; inactive = score below 0.9.
// one of class 1 for active, class 0 for inactive, no free text

Solved entries (count: 4):
# compound, qualitative label
measured = [
    ("CC(C)c1c(C(=O)Nc2ccccc2)c(-c2ccccc2)c(-c2ccc(F)cc2)n1CC[C@@H](O)C[C@@H](O)CC(=O)O", "class 0"),
    ("O=c1cc(-c2ccccc2)oc2ccc3ccccc3c12", "class 0"),
    ("Nc1cc(Cl)c(-c2cc(Cl)c(N)cc2Cl)cc1Cl", "class 1"),
    ("Nc1ccn([C@@H]2O[C@H](CO)[C@@H](O)C2O)c(=O)n1 (stereo not given in full)", "class 0"),
]

Per the assay record, what outcome was assigned to COc1ccccc1NC(=O)c1cc2ccccc2cc1O ?
class 1
